# Tgt: CyclinE1/CDK2 (Homo sapiens)
# Construct: purchased Eurofins, discovery 14-475
# Method: Fluorescence Polarization (FP) competitive binding assay, Cyclin E1/Cdk2;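 also: readings taken after two-hour equilibration at room temperature in HEPES buffer with NaCl, DTT, NP-40 and BSA, IC50 fitted from eight-concentration serial dilution series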
# Applied conditions: 10 nM Cyclin E1/Cdk2, 2 nM FAM probe; average of 2-3 independent experiments; read-out: Cyclin E FP IC50
Reported endpoint: pIC50
# log scale: pIC50 equals minus log10 of the concentration in mol/L

* CC(C)C[C@@H]1NC(=O)[C@@H](N(C)C(=O)[C@@H](NC(=O)[C@@H]2C[C@@H](F)CN2C(=O)C2(C(F)(F)F)CC(F)(F)C2)C2CC2)CCCCCCN(C)C(=O)[C@H](Cc2cc(Cl)ccc2-c2cnn(C)c2)N(C)C1=O | 5.98

Consider the additional molecule presented here.
// field: pIC50; key: CC(C)C[C@@H]1NC(=O)[C@@H](N(C)C(=O)[C@@H](NC(=O)[C@@H]2C[C@@H](F)CN2C(=O)C2(C(F)(F)F)CC(F)(F)C2)C2CC2)CC=CCCCCNC(=O)[C@H](Cc2cc(Cl)ccc2-c2cnn(C3COC3)c2)N(C)C1=O ; value = 5.72

The reported measurements were obtained from patent US20240408169A1.
